# Target System: alpha-5-beta-1 integrin (Homo sapiens (Human), UniProt P05556+P08648)
# Sequence (P08648 42-894): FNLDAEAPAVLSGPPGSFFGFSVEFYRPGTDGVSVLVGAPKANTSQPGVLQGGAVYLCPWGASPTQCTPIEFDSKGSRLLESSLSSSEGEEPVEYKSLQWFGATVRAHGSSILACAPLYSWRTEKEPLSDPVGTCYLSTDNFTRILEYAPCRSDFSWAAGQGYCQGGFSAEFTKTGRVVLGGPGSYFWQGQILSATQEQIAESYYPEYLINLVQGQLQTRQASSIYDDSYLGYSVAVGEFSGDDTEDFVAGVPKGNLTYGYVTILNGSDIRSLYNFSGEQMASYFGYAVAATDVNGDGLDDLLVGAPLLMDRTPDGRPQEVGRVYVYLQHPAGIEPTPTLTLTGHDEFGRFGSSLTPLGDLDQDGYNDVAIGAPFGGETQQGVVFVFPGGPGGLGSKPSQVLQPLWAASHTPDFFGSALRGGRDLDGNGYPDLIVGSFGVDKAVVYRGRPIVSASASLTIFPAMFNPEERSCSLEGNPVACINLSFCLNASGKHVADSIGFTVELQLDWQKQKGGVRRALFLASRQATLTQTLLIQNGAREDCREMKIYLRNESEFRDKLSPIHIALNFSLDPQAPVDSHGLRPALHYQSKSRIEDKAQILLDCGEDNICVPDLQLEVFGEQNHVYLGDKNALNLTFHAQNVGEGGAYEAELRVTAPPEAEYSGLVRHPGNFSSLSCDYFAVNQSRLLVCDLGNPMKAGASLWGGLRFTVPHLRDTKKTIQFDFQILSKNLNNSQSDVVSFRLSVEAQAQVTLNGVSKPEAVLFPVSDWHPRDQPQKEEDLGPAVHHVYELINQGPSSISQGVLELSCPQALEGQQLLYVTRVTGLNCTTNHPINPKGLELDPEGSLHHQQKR
# Sequence (P08648 895-1049 partner): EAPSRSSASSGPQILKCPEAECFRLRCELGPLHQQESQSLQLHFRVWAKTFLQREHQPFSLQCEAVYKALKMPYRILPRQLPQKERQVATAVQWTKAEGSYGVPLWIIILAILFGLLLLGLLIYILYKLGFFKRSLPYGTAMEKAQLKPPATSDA
# Sequence (P05556 21-798): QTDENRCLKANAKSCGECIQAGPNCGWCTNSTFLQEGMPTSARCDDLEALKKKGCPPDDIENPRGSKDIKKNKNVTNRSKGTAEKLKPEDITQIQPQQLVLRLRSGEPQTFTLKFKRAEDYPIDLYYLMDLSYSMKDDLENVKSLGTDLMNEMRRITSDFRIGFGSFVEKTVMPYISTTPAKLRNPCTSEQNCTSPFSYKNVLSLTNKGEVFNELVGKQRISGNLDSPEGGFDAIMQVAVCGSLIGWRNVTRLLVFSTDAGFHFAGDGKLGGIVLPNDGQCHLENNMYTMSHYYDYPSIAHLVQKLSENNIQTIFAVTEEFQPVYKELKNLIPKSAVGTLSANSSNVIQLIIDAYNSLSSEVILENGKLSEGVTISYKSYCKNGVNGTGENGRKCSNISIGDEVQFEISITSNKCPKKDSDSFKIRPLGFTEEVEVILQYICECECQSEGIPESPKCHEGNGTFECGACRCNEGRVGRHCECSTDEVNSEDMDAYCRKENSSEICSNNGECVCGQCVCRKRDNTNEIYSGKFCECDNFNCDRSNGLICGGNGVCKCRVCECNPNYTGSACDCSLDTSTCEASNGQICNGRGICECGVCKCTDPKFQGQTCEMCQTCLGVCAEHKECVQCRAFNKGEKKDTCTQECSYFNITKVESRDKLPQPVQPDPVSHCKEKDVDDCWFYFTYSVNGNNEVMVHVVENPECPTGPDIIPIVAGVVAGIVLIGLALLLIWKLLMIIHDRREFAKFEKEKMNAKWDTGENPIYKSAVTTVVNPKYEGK
# Measurement Description: alpha-5-beta-1 integrin cell adhesion assay (SW480 cells on human plasma fibronectin)
# Type: cell-based
# Setup Conditions: alpha-5-beta-1 integrin cell adhesion assay following Example 1; Table 2
pIC50: −log10 of the molar value.
The entries below come with measured pIC50 values attached.

>  <Compound>
C[C@@H](NC(=O)c1cccc(NC2=NCC(F)CN2)c1)C(=O)NC[C@H](NC(=O)c1c(Cl)cc(-c2ccccc2)cc1Cl)C(=O)O (some centres unmarked)

>  <pIC50>
6.00 to 7.00

$$$$
>  <Compound>
O=C(CNC(=O)c1cccc(NC2=NCC(F)(F)CN2)c1)NC[C@H](NC(=O)c1c(Cl)cc(N2CCOCC2)cc1Cl)C(=O)O

>  <pIC50>
> 7.00

$$$$
>  <Compound>
O=C(CNC(=O)c1cccc(NC2=NCC(F)(F)CN2)c1)NC[C@H](NC(=O)c1c(Cl)cc(-c2ccccc2)cc1Cl)C(=O)O

>  <pIC50>
> 7.00

$$$$
>  <Compound>
O=C(CCc1ccc2c(n1)NCCC2)NCC(=O)NC[C@H](NC(=O)c1c(Cl)cc(-c2ccccc2)cc1Cl)C(=O)O

>  <pIC50>
6.00 to 7.00

$$$$
>  <Compound>
CS(=O)(=O)c1ccc(-c2cc(Cl)c(C(=O)N[C@@H](CNC(=O)CNC(=O)c3cccc(N=C(N)N)c3)C(=O)O)c(Cl)c2)cc1

>  <pIC50>
> 7.00

$$$$
